system: A549-ACE2; experiment: drug-induced phospholipidosis relative to tamoxifen; higher = more phospholipidosis; settings: 0.833333 µM; 48 h
Could you label it 1 if measured drug-induced phospholipidosis is 10% or higher, and 0 otherwise?

Does the compound O=C(OC(C(F)(F)F)C(F)(F)F)N1CCN(Cc2cccc(Oc3ccccc3)c2)CC1 have recorded drug-induced phospholipidosis that is 10% or more?
1

Does the compound CCCC[C@@H](C=O)NC(=O)[C@H](CC(C)C)NC(=O)OCc1ccccc1 have recorded drug-induced phospholipidosis that is 10% or more?
0

Does the compound Clc1ccccc1CNC[C@H]1CC[C@H](CNCc2ccccc2Cl)CC1 have recorded drug-induced phospholipidosis that is 10% or more?
1

Does the compound COc1cc2c(NC3CCN(C4CCCCC4)CC3)nc(N3CCCN(C(C)C)CC3)nc2cc1OCCCN1CCCCC1 have recorded drug-induced phospholipidosis that is 10% or more?
0

Does the compound CCOC(=O)c1c(C)[nH]c2ccc3c(c12)CN1CCc2cc(OC)ccc2C1O3 (stereo not drawn) have recorded drug-induced phospholipidosis that is 10% or more?
0

Does the compound C[S+]([O-])CCCCN=C=S (stereo not drawn) have recorded drug-induced phospholipidosis that is 10% or more?
0

Does the compound OC(c1cc(C(F)(F)F)nc2c(C(F)(F)F)cccc12)C1CCCCN1 (stereo not drawn) have recorded drug-induced phospholipidosis that is 10% or more?
1

Does the compound c1ccc2c(CCNc3ccc(Nc4ccncc4)cc3)c[nH]c2c1 have recorded drug-induced phospholipidosis that is 10% or more?
0

====

tested on: A549-ACE2; test: drug-induced phospholipidosis relative to tamoxifen; higher = more phospholipidosis; conditions: 10 µM; 72 h
measured-parameter: drug-induced phospholipidosis (%)
All answers are understood in %, so give the number only.

Record FC(F)(F)c1cc(CO[C@H]2CCCN[C@H]2c2ccccc2)cc(C(F)(F)F)c1 ; system A549-ACE2; drug-induced phospholipidosis = 93

Record C[S+]([O-])CCCCN=C=S (stereo not given) ; system A549-ACE2; drug-induced phospholipidosis = -2.75

Record Cc1[nH]c2ccccc2c1CCNC(=O)c1cccs1 ; system A549-ACE2; drug-induced phospholipidosis = 4.6

Record O=C(OC(C(F)(F)F)C(F)(F)F)N1CCN(Cc2cccc(Oc3ccccc3)c2)CC1 ; system A549-ACE2; drug-induced phospholipidosis = 64.8

Record O=C(CN1C2=NCCN2c2ccccc21)c1ccc(-c2ccccc2)cc1 ; system A549-ACE2; drug-induced phospholipidosis = 99.6

====

tested on: A549-ACE2; assay: drug-induced phospholipidosis relative to tamoxifen; higher = more phospholipidosis; settings: 3.33333 µM; 24 h
measured-parameter: drug-induced phospholipidosis
Your reply should be a number followed by the unit it is expressed in.

So, COc1cc2c(NC3CCN(C4CCCCC4)CC3)nc(N3CCCN(C(C)C)CC3)nc2cc1OCCCN1CCCCC1 ? Its drug-induced phospholipidosis was 3.14%

So, O=C(CN1C2=NCCN2c2ccccc21)c1ccc(-c2ccccc2)cc1 ? Its drug-induced phospholipidosis was 26.4%

So, Clc1ccccc1CNC[C@H]1CC[C@H](CNCc2ccccc2Cl)CC1 ? Its drug-induced phospholipidosis was 77.7%

So, CCCC[C@@H](C=O)NC(=O)[C@H](CC(C)C)NC(=O)OCc1ccccc1 ? Its drug-induced phospholipidosis was 10.6%

So, FC(F)(F)c1cc(CO[C@H]2CCCN[C@H]2c2ccccc2)cc(C(F)(F)F)c1 ? Its drug-induced phospholipidosis was 79.2%

So, CN(C)CCOc1ccc(/C(=C(/CCCl)c2ccccc2)c2ccccc2)cc1 ? Its drug-induced phospholipidosis was 103%

So, O=C(OC(C(F)(F)F)C(F)(F)F)N1CCN(Cc2cccc(Oc3ccccc3)c2)CC1 ? Its drug-induced phospholipidosis was 39.6%

====

tested on: Caco-2; test: cell viability relative to DMSO; higher = less toxic; details: 72 h; 10000 nM
Would you mind telling me the reported cell viability of each entry?

So, COC(=O)c1sccc1S(=O)(=O)Nc1ccc(Nc2ccccc2)cc1OC [GSK0660] ? Its cell viability was 98.9%

So, O=C(O)c1cc(-c2ccc(F)cc2F)ccc1O [diflunisal] ? Its cell viability was 104%

So, C[S+]([O-])CCCCN=C=S (stereo not drawn) [sulforaphane] ? Its cell viability was 70.9%

So, O=C(CCCCC(=O)Nc1c(I)cc(I)c(C(=O)O)c1I)Nc1c(I)cc(I)c(C(=O)O)c1I [iodipamide] ? Its cell viability was 102%

So, Cc1cc(O)c(-c2ccc([C@@H](C)CN)cc2)c2c1[nH]c(=O)c1sccc12 [OTS514] ? Its cell viability was 25.5%

So, COP(=O)(OC)OC(c1ccc(Cl)cc1)P(=O)(OC)OC (stereo not drawn) [mifobate] ? Its cell viability was 105%

So, CCC(=O)OCC(=O)[C@@]1(OC(=O)CC)[C@H](C)C[C@H]2[C@H]3[C@H]([C@@H](O)C[C@@]21C)[C@@]1(C)C=CC(=O)C=C1C[C@H]3Cl [alclometasone-dipropionate] ? Its cell viability was 96.8%

So, O=C(O)c1c(Cl)c(Cl)c(Cl)c(Cl)c1-c1c2cc(I)c(=O)c(I)c-2oc2c(I)c(O)c(I)cc12 [rose-bengal] ? Its cell viability was 52.2%

====

Would you mind telling me the reported cell viability of each entry?
test system: U2OS; assay: cell viability relative to DMSO; higher = less toxic; settings: 72 h; 10000 nM
All answers are understood in %, so give the number only.

Record COc1cc2c(NC3CCN(C4CCCCC4)CC3)nc(N3CCCN(C(C)C)CC3)nc2cc1OCCCN1CCCCC1 ; system U2OS; cell viability = 94.7

Record CNCCCOc1cc(F)c(-c2c(Cl)nc3ncnn3c2N[C@@H](C)C(F)(F)F)c(F)c1 ; system U2OS; cell viability = 21

Record COc1cc2c(cc1OCCCN1CCCC1)N=C(N)C21CCC1 ; system U2OS; cell viability = 95.2

Record NC[C@H]1O[C@H](O[C@H]2[C@H](O)[C@@H](O[C@H]3O[C@H](CO)[C@@H](O)[C@H](N)[C@H]3O)[C@H](N)C[C@@H]2N)[C@H](N)C[C@@H]1O ; system U2OS; cell viability = 108

Record CN(C)CCn1cc(S(=O)(=O)c2cccc(F)c2)c2cccnc21 ; system U2OS; cell viability = 103

Record Cc1cc(O)c(-c2ccc([C@@H](C)CN)cc2)c2c1[nH]c(=O)c1sccc12 ; system U2OS; cell viability = 1.1

Record O=C(Nc1ccncc1)C(=O)c1cn(Cc2ccc(Cl)cc2)c2ccccc12 ; system U2OS; cell viability = 90.9

Record COC(=O)c1sccc1S(=O)(=O)Nc1ccc(Nc2ccccc2)cc1OC ; system U2OS; cell viability = 93.5

====

Would you mind telling me the reported cell viability of each entry?
system: HepG2; assay: cell viability relative to DMSO; higher = less toxic; conditions: 72 h; 100 nM
All answers are understood in %, so give the number only.

So, O=C1CCC[C@@H]2[C@H]3CCCN4CCC[C@@H](CN12)[C@@H]34 ? Its cell viability was 85.8

So, CC[N+](CC)(CCCNC1=CC(=O)C(NCCC[N+](CC)(CC)Cc2ccccc2)=CC1=O)Cc1ccccc1 [benzoquinonium-dibromide] ? Its cell viability was 95.2

So, Cc1cnc(CNC(=O)c2c(=O)c3ccc(N4CCCN(C)CC4)nc3n3c2sc2ccccc23)cn1 ? Its cell viability was 110

So, CC(C)(C)OC(=O)c1ncn2c1[C@@H]1CCCN1C(=O)c1c(Br)cccc1-2 ? Its cell viability was 95.2

So, CCOc1nc2cccc(C(=O)O)c2n1Cc1ccc(-c2ccccc2-c2noc(=O)[nH]2)cc1 ? Its cell viability was 102

So, CC(C)[C@](O)(c1ccc2cc(OC(F)F)c(OC(F)F)cc2c1)c1c[nH]nn1 ? Its cell viability was 98.1

So, CC(C)[C@@H](C)/C=C/[C@@H](C)[C@H]1CC[C@H]2/C(=C/C=C3\C[C@@H](O)CC[C@@H]3C)CCC[C@]12C [dihydrotachysterol] ? Its cell viability was 95.8

So, CC(CNC(=O)c1cccnc1)NC(=O)c1cccnc1 (configuration not stated) ? Its cell viability was 90.8

So, CC(C)(C)c1cc(/C=C(\C#N)C(N)=S)cc(C(C)(C)C)c1O ? Its cell viability was 104

So, Nc1ncnc(Nc2ccc(Cl)cc2)n1 ? Its cell viability was 88

So, CC(C)(OCc1nn(Cc2ccccc2)c2ccccc12)C(=O)O ? Its cell viability was 100

So, CN1C(=O)OC(C)(C)C1=O ? Its cell viability was 93.6

So, c1ccc(-c2nc(CN3CCN(c4ncccn4)CC3)c[nH]2)cc1 ? Its cell viability was 94.1

So, C[C@H](CS)C(=O)N1CCC[C@H]1C(=O)O ? Its cell viability was 105

So, C[C@]12CC[C@@H]3c4ccc(O)cc4C[C@@H](CCCCCCCCC[S+]([O-])CCCC(F)(F)C(F)(F)F)[C@H]3[C@@H]1CC[C@@H]2O (some centres not stated) ? Its cell viability was 96.8

So, COc1ccc2c(NC(=O)Nc3cccc(C(F)(F)F)n3)ccnc2c1 ? Its cell viability was 93.8

So, COc1cccc(CCc2ccccc2OCC(CN(C)C)OC(=O)CCC(=O)O)c1 (configuration not stated) [sarpogrelate] ? Its cell viability was 105
